MEASUREMENT_DESCRIPTION: SUPPLEMENTARY: Lyophilisation Solubility Assay (LYSA)
Format: physicochemical
CONDITION_LABEL: read-out: Kinetic_solubility
Each entry below lists one item and its recorded log10 of solubility kinetic value.
// do not treat as linear: log10 of solubility kinetic, unit µg/mL

- COMPOUND: "COc1ccc(Cl)cc1S(=O)(=O)N1CCc2ccc(C(=O)Nc3nc(CC(=O)O)cs3)cc21"
  log10 of solubility kinetic: 1.68
- COMPOUND: "NC(=O)c1cncc(-c2noc([C@H]3CCCCN3C(=O)COc3ccccc3)n2)c1"
  log10 of solubility kinetic: 2.15
- COMPOUND: "CNC(=O)c1cncc(-c2noc([C@H]3CCCCN3C(=O)COc3ccccc3)n2)c1"
  log10 of solubility kinetic: 2.56

As a next step, examine the compound that follows.
### Prompt Please look up its log10 of solubility kinetic: CCOc1ccc2c(c1)CN(C(=O)[C@H]1CCCCN1C(=O)COc1ccccc1)C2
### Response 1.48

* * *

MEASUREMENT_DESCRIPTION: SUPPLEMENTARY: Lyophilisation Solubility Assay (LYSA)
Type: physicochemical
CONDITION_LABEL: read-out: Kinetic_solubility
OBSERVATION_TYPE: solubility kinetic (µg/mL)
Output spec: scalar in µg/mL, unitless text.

Take a look at these entries with their results.
- MOLECULE: "CC(=O)Nc1cccc(-n2nnc([C@H]3CCCCN3C(=O)COc3ccccc3)n2)c1"
  DISPLAY_UNIT: "µg/mL"
  solubility kinetic: 26
- MOLECULE: "Cc1cc(-c2n[nH]c([C@H]3CCCCN3C(=O)COc3ccccc3)n2)n(C)n1"
  DISPLAY_UNIT: "µg/mL"
  solubility kinetic: 129
- MOLECULE: "O=C(COc1ccccc1)N1CCCC[C@@H]1c1nc(-c2ccc([N+](=O)[O-])o2)no1"
  DISPLAY_UNIT: "µg/mL"
  solubility kinetic: 6
- MOLECULE: "O=C(COc1ccccc1)N1CCCC[C@@H]1c1noc(-c2cnc3ccccc3n2)n1"
  DISPLAY_UNIT: "µg/mL"
  solubility kinetic: 12

As a next step, examine the molecule that follows.
### Prompt Please look up its solubility kinetic: COc1ccc(Cl)cc1S(=O)(=O)N1CCc2c(C)cc(C(=O)Nc3nc(CC(=O)O)cs3)cc21
### Response 249

* * *

Each entry below lists one item and its recorded Papp value.
MEASUREMENT_DESCRIPTION: SUPPLEMENTARY: PAMPA permeability assay
Format: physicochemical
CONDITION_LABEL: read-out: Permeability
Output spec: scalar in ×10⁻⁶ cm/s, unitless text.

Take a look at these entries with their results.
- MOLECULE: "COc1ccc(Cl)cc1S(=O)(=O)N1CCc2ccc(C(=O)Nc3ccc(C(=O)O)c(Cl)c3)cc21"
  DISPLAY_UNIT: "×10⁻⁶ cm/s"
  ASSAY_VALUE: 1.2
- MOLECULE: "NC(=O)c1cncc(-c2noc([C@H]3CCCCN3C(=O)COc3ccccc3)n2)c1"
  DISPLAY_UNIT: "×10⁻⁶ cm/s"
  ASSAY_VALUE: 3.83
- MOLECULE: "NC(=O)c1n[nH]c2cc(-c3noc([C@H]4CCCCN4C(=O)COc4ccccc4)n3)ccc12"
  DISPLAY_UNIT: "×10⁻⁶ cm/s"
  ASSAY_VALUE: 2.35
- MOLECULE: "Cc1cc(C)cc(S(=O)(=O)N2CCc3ccc(C(=O)Nc4ccc(CC(=O)O)cc4)cc32)c1"
  DISPLAY_UNIT: "×10⁻⁶ cm/s"
  ASSAY_VALUE: 4.05
- MOLECULE: "COc1ccc(Cl)cc1S(=O)(=O)N(C)c1cc(C(=O)Nc2ccc(C(=O)O)cc2)cc2c1OCCO2"
  DISPLAY_UNIT: "×10⁻⁶ cm/s"
  ASSAY_VALUE: 2.54
- MOLECULE: "NC(=O)c1cccc(-c2noc([C@H]3CCCCN3C(=O)COc3ccccc3)n2)c1"
  DISPLAY_UNIT: "×10⁻⁶ cm/s"
  ASSAY_VALUE: 2.55
- MOLECULE: "O=C(COc1ccccc1)N1CCCC[C@@H]1c1nc(-c2cccc(-c3n[nH]c(=O)o3)c2)n[nH]1"
  DISPLAY_UNIT: "×10⁻⁶ cm/s"
  ASSAY_VALUE: 1.7
- MOLECULE: "Nc1cccc(-c2nc([C@H]3CCCCN3C(=O)COc3ccccc3)no2)n1"
  DISPLAY_UNIT: "×10⁻⁶ cm/s"
  ASSAY_VALUE: 5.45

### Prompt Please look up its Papp: COc1ccc(Cl)cc1S(=O)(=O)N1COc2ccc(C(=O)Nc3nc(CC(=O)O)cs3)cc21
### Response 2.93

### Prompt Please look up its Papp: COC(=O)[C@H]1CCCC[C@@H]1c1nc([C@H]2CCCCN2C(=O)COc2ccccc2)no1
### Response 2.24

### Prompt Please look up its Papp: O=C(COc1ccccc1)N1CCCC[C@@H]1c1noc(-c2cc([N+](=O)[O-])[nH]n2)n1
### Response 6.99
